Target: hGLP-1R (Homo sapiens)
Sequence (P43220 24-463): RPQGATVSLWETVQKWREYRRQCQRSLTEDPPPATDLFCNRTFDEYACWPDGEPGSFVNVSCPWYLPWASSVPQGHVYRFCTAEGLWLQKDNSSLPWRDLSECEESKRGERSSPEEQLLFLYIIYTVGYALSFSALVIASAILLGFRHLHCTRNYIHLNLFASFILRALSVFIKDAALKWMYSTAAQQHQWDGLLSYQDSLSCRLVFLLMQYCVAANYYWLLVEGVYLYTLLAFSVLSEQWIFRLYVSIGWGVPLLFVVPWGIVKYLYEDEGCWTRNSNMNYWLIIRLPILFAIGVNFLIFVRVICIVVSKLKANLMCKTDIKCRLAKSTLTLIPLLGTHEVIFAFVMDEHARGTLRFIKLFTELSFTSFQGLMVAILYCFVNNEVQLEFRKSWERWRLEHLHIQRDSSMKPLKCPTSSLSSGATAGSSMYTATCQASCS
Assay text: Functional cAMP activation in the presence of 0.1% casein (no HSA);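 also: intracellular cAMP rise after 30 min at 37 °C read by HTRF, normalized between buffer only (0%) and maximal control ligand (100%), four-parameter variable-slope fit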
Format: cell-based
Setup conditions: in the presence of 0.1% casein (no HSA); geometric mean; read-out: Relative cAMP EC50, hGLP-1R
pEC50: −log10 of the molar value. Starred links: 1 amine or outer side, 2 acyl side, 3 side chain; linkers in the order of their positions; H or OH if unused. Non-standard residues stand in square brackets, D forms with d. Groups on a side chain read outwards from the residue. No end group written: not given here. *: point of attachment. C20 diacid = O=C(O)CCCCCCCCCCCCCCCCCCC(=O)*; C18 diacid = O=C(O)CCCCCCCCCCCCCCCCC(=O)*; αMePhe(2-F) = C[C@](N)(Cc1ccccc1F)C(=O)O; γGlu = O=C(O)[C@H](CCC(=O)[*:2])N[*:1]; αMe4Pal = C[C@](N)(Cc1ccncc1)C(=O)O; αMeY = C[C@](N)(Cc1ccc(O)cc1)C(=O)O; 4Pal = N[C@@H](Cc1ccncc1)C(=O)O; αMeL = CC(C)C[C@](C)(N)C(=O)O; αMeS = C[C@](N)(CO)C(=O)O; Orn = NCCC[C@H](N)C(=O)O; AEEA = NCCOCCOCC(=O)O; Aib = CC(C)(N)C(=O)O
# pEC50 annotations
Quantity measured: pEC50

Substance | Experimental result
H-Y[Aib]QGTFTSDFS[Orn][αMeL]LDKK([AEEA-γGlu-C18 diacid])AQ[Aib]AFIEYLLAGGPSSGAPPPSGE-NH2 [Example 86] | 8.61
Y[Aib]QGT[αMePhe(2-F)]TSD[4Pal][αMeS]I[αMeL]LD[Orn]K([AEEA-γGlu-C18 diacid])AQ[αMe4Pal]EFI[dE][αMeY]LIEGGPSSGEPPPESE-NH2 [Example 1147] | 9.46
Y[Aib]QGTFTSD[4Pal]SQ[αMeL]LDKK([γGlu-dE-dE-C18 diacid])AQ[αMe4Pal]AFIEYLIE[Aib]GPSSGAPPPSGSE-NH2 [Example 926] | 8.11
H-Y[Aib]QGTFTSD[4Pal]SQ[αMeL]LDKK([γGlu-γGlu-C18 diacid])AQ[αMe4Pal]AFIEYLIE[Aib]GPSSGAPPPSGSEEE-NH2 [Example 900] | 8.40
H-Y[Aib]QGTFTSDYSI[αMeL]LDKIAAK([AEEA-AEEA-γGlu-C20 diacid])QFVEWLLA[Aib]GPSSGEPPPSEG-NH2 [Example 324] | 8.36
Y[Aib]QGTFTSD[4Pal]SR[αMeL]LDKK([AEEA-γGlu-C18 diacid])AQ[αMe4Pal]AFIE[αMe4Pal]LIEGGPSSGAPPPSGS-NH2 [Example 950] | 8.60

Values were extracted from patent US20240270821A1.
